Where do these numbers come from? They come from ChEMBL document CHEMBL1148330.

Catalogue of Emax readings, one per entry.
Molecular target: Delta-type opioid receptor (Homo sapiens, UniProt P41143)
Sequence (P41143 whole entry): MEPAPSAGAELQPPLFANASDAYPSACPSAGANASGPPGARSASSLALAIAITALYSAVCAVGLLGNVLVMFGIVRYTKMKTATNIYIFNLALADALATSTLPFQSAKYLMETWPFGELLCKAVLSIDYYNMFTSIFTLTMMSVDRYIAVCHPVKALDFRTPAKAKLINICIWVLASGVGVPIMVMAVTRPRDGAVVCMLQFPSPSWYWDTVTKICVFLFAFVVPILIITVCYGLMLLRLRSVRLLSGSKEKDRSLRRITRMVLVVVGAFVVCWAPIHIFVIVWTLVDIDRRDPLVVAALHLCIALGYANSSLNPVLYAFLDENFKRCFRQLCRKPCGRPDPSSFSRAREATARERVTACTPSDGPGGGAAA
Assay: Percent maximal stimulation of [35S]GTP-gamma-S, binding to recombinant human opioid receptor delta 1 expressed in CHO cells
Assay type: functional, cell-based
Report the value in % with no unit label.

Solved entries (count: 4):
* CCCCOc1cccc2c1[C@]13CCN(CC4CC4)[C@H](C2)[C@]1(OC)CCC(=O)C3 | 22
* O=C1CC[C@@]2(OCCCc3ccccc3)[C@H]3Cc4cccc5c4[C@@]2(CCN3CC2CC2)C1O5 (stereo not given in full) | 17
* O=C1CC[C@@]2(OCCCc3ccccc3)[C@H]3Cc4cccc(O)c4[C@@]2(CCN3CC2CC2)C1 | 49
* COc1cccc2c1[C@]13CCN(CC4CC4)[C@H](C2)[C@]1(OC)CCC(=O)C3 | 18

For the compound shown here, `COc1cccc2c1[C@]13CCN(CC4CC4)[C@H](C2)[C@]1(OCCCc1ccccc1)CCC(=O)C3` , give the reported Emax.
22

----------
Molecular target: Kappa-type opioid receptor (Homo sapiens, UniProt P41145)
Sequence (P41145 whole entry): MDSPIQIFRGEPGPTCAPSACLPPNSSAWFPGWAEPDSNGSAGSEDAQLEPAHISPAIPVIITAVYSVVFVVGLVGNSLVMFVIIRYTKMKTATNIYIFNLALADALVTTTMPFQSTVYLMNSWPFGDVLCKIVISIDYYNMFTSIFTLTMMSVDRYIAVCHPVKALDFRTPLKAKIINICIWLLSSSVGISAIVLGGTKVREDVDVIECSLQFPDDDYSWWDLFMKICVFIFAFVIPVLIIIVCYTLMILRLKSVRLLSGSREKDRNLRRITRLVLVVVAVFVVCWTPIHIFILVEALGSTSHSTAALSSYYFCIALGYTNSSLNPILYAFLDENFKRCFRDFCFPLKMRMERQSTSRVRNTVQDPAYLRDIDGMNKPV
Assay: Concentration necessary to produce 50% of the Emax value, i.e. to stimulate [35S]GTP-gamma-S, binding to recombinant human Opioid receptor kappa 1 expressed in CHO cells
Type: functional, cell-based
QUANTITY KIND: EC50

Example entries begin here.
* O=C1CC[C@@]2(OCCCc3ccccc3)[C@H]3Cc4cccc5c4[C@@]2(CCN3CC2CC2)C1O5 (stereo not given in full) | > 10 µM
* CCCCOc1cccc2c1[C@]13CCN(CC4CC4)[C@H](C2)[C@]1(OC)CCC(=O)C3 | > 10 µM
* COc1cccc2c1[C@]13CCN(CC4CC4)[C@H](C2)[C@]1(OC)CCC(=O)C3 | 0.117 µM

Notebook: pull reported EC50 for Kappa-type opioid receptor (Homo sapiens, UniProt P41145), entry `COc1cccc2c1[C@]13CCN(CC4CC4)[C@H](C2)[C@]1(OCCCc1ccccc1)CCC(=O)C3`
> 10 µM

Now give it for `O=C1CC[C@@]2(OCCCc3ccccc3)[C@H]3Cc4cccc(O)c4[C@@]2(CCN3CC2CC2)C1` too.
0.00451 µM

----------
Readings of Selectivity ratio for the listed molecules
Species on record: Rattus norvegicus
Assay: Selectivity ratio of binding affinities between kappa opioid receptors and mu opioid receptors in rat brain membranes
Type: cell membranes
Just the number, please, no unit after it.

Example results:
* CCCCOc1cccc2c1[C@]13CCN(CC4CC4)[C@H](C2)[C@]1(OCCCc1ccccc1)CCC(=O)C3 | 10
* CCCCCCOc1cccc2c1[C@]13CCN(CC4CC4)[C@H](C2)[C@]1(OC)CCC(=O)C3 | 9.8

Could you share which Selectivity ratio value was measured for COc1cccc2c1[C@]13CCN(CC4CC4)[C@H](C2)[C@]1(OC)CCC(=O)C3 [CYPRODIME] ?
10
